- ASSAYED_SYSTEM: the molecule itself
- EXPERIMENTAL_PROTOCOL: mass photometry; Refeyn OneMP; CHIP at 50 nM final (a subset also at 20 nM and 100 nM) in 20 mM HEPES pH 8.0, 200 mM NaCl; self-association, oligomeric states by mass

| PROTEIN | binding result |
| --- | --- |
| CHIP I53T, recombinant, C-terminal His tag (enzyme, human, UniProt Q9UNE7-1 1-303, looked up, CHIP (STUB1), human, SCA48-associated TPR-domain variant I53T; source: PD-10 desalting for mass photometry, size exclusion for ubiquitination assays) MKGKEEKEGGARLGAGGGSPEKSPSAQELKEQGNRLFVGRKYPEAAACYGRATTRNPLVAVYYTNRALCYLKMQQHEQALADCRRALELDGQSVKAHFFLGQCQLEMESYDEAIANLQRAYSLAKEQRLNFGDDIPSALRIAKKKRWNSIEERRIHQESELHSYLSRLIAAERERELEECQRNHEGDEDDSHVRAQQACIEAKHDKYMADMDELFSQVDEKRKKRDIPDYLCGKISFELMREPCITPSGITYDRKDIEEHLQRVGHFDPVTRSPLTQEQLIPNLAMKEVIDAFISENGWVEDY | binds |
| CHIP G33S, recombinant, C-terminal His tag (enzyme, human, UniProt Q9UNE7-1 1-303, looked up, CHIP (STUB1), human, SCA48-associated TPR-domain variant G33S; source: PD-10 desalting for mass photometry, size exclusion for ubiquitination assays; not shown: His tag, C-terminal, kept) MKGKEEKEGGARLGAGGGSPEKSPSAQELKEQSNRLFVGRKYPEAAACYGRAITRNPLVAVYYTNRALCYLKMQQHEQALADCRRALELDGQSVKAHFFLGQCQLEMESYDEAIANLQRAYSLAKEQRLNFGDDIPSALRIAKKKRWNSIEERRIHQESELHSYLSRLIAAERERELEECQRNHEGDEDDSHVRAQQACIEAKHDKYMADMDELFSQVDEKRKKRDIPDYLCGKISFELMREPCITPSGITYDRKDIEEHLQRVGHFDPVTRSPLTQEQLIPNLAMKEVIDAFISENGWVEDY | binds |
| CHIP A67T, recombinant, C-terminal His tag (enzyme, human, UniProt Q9UNE7-1 1-303, looked up, CHIP (STUB1), human, SCA48-associated TPR-domain variant A67T; source: PD-10 desalting for mass photometry, size exclusion for ubiquitination assays) MKGKEEKEGGARLGAGGGSPEKSPSAQELKEQGNRLFVGRKYPEAAACYGRAITRNPLVAVYYTNRTLCYLKMQQHEQALADCRRALELDGQSVKAHFFLGQCQLEMESYDEAIANLQRAYSLAKEQRLNFGDDIPSALRIAKKKRWNSIEERRIHQESELHSYLSRLIAAERERELEECQRNHEGDEDDSHVRAQQACIEAKHDKYMADMDELFSQVDEKRKKRDIPDYLCGKISFELMREPCITPSGITYDRKDIEEHLQRVGHFDPVTRSPLTQEQLIPNLAMKEVIDAFISENGWVEDY | binds |

The reported measurements were obtained from paper PMC13570301.
